EXPERIMENT_DESCRIPTION: Thermodynamic solubility at room temperature
Assay type: physicochemical
ASSAY_CONDITIONS: 25 °C, organic solvent or mixture, thermodynamic from solid, solvent n-Heptane/THF (1:1 by volume)
MEASURED_ENDPOINT: solubility

                                   molecule  measured_endpoint     measurement
0  CNC[C@@H](O)COc1ccc(Cl)c(-c2nc(-c3c(C)noc3C)c(C)c(N3CC4(CCN(C(=O)OC)CC4)C3)n2)c1 [Form A]         solubility  14 to 21 mg/mL

====

EXPERIMENT_DESCRIPTION: Thermodynamic solubility at room temperature
Type: physicochemical
ASSAY_CONDITIONS: 25 °C, organic solvent or mixture, thermodynamic from solid, solvent Methyl-tert-butyl ether
MEASURED_ENDPOINT: solubility

>>> print(df.to_string())
                                   molecule  measured_endpoint   measurement
0  CNC[C@@H](O)COc1ccc(Cl)c(-c2nc(-c3c(C)noc3C)c(C)c(N3CC4(CCN(C(=O)OC)CC4)C3)n2)c1 [Form A]         solubility  < 1100 µg/mL

====

EXPERIMENT_DESCRIPTION: Thermodynamic solubility at room temperature
Type: physicochemical
ASSAY_CONDITIONS: 25 °C, organic solvent or mixture, thermodynamic from solid, solvent Methyl isobutyl ketone
MEASURED_ENDPOINT: solubility

>>> print(df.to_string())
                                   compound  measurement
0  CNC[C@@H](O)COc1ccc(Cl)c(-c2nc(-c3c(C)noc3C)c(C)c(N3CC4(CCN(C(=O)OC)CC4)C3)n2)c1 [Form A]   > 34 mg/mL

====

EXPERIMENT_DESCRIPTION: Thermodynamic solubility at room temperature
Assay type: physicochemical
ASSAY_CONDITIONS: 25 °C, organic solvent or mixture, thermodynamic from solid, solvent EtOAc
Method: In an exemplary experiment, the thermodynamic solubilities of the solid forms described herein were determined at room temperature (RT, 25±3° C.).
MEASURED_ENDPOINT: solubility

>>> df
                                   compound  measurement
0  CNC[C@@H](O)COc1ccc(Cl)c(-c2nc(-c3c(C)noc3C)c(C)c(N3CC4(CCN(C(=O)OC)CC4)C3)n2)c1 [Form A]   > 50 mg/mL

====

EXPERIMENT_DESCRIPTION: Thermodynamic solubility at room temperature
Type: physicochemical
ASSAY_CONDITIONS: 25 °C, organic solvent or mixture, thermodynamic from solid, solvent n-Heptane/THF (2:1 by volume)
MEASURED_ENDPOINT: solubility

>>> print(df.to_string())
                                   compound         measurement
0  CNC[C@@H](O)COc1ccc(Cl)c(-c2nc(-c3c(C)noc3C)c(C)c(N3CC4(CCN(C(=O)OC)CC4)C3)n2)c1 [Form A]  2600 to 3000 µg/mL

====

EXPERIMENT_DESCRIPTION: Thermodynamic solubility at room temperature
Format: physicochemical
ASSAY_CONDITIONS: 25 °C, organic solvent or mixture, thermodynamic from solid, solvent n-Heptane/THF (1:3 by volume)
MEASURED_ENDPOINT: solubility

In [3]: df
Out[3]:
                                   compound  measurement
0  CNC[C@@H](O)COc1ccc(Cl)c(-c2nc(-c3c(C)noc3C)c(C)c(N3CC4(CCN(C(=O)OC)CC4)C3)n2)c1 [Form A]   > 40 mg/mL
